Assay: Inhibition of Hepatitis C virus genotype 1b Con1 replicon NS5A transfected in human HuH7 cells assessed as decrease in replication of viral replicon after 4 days by luciferase reporter gene assay
Type: cell-based, Hepatitis C virus (isolate Con1)
Conditions: Huh-7, 96 h
pEC50: −log10 of the molar value.
Outcome label depends on pEC50 relative to 10: at/above gives Yes, below gives No.

Worked examples follow.
COC(=O)N[C@H](C(=O)N1CCC[C@H]1c1nc2nc(-c3ccc(-c4ccc5[nH]c([C@@H]6CCCN6C(=O)[C@@H](NC(=O)OC)C(C)C)nc5n4)cc3)ccc2[nH]1)C(C)C : No
COC(=O)N[C@H](C(=O)N1CCC[C@H]1c1nc2cc([C@H]3CC[C@H](c4cc5nc([C@@H]6CCCN6C(=O)[C@@H](NC(=O)OC)C(C)C)[nH]c5cc4F)N3c3ccc(C(C)(C)C)cc3)c(F)cc2[nH]1)C(C)C : Yes
COC(=O)N[C@H](C(=O)N1CCC[C@H]1c1nc2cc(-c3ccc(-c4cc(C)c5[nH]c([C@@H]6CCCN6C(=O)[C@@H](NC(=O)OC)C(C)C)nc5c4)cc3)cc(C)c2[nH]1)C(C)C : Yes
COC(=O)N[C@H](C(=O)N1CCC[C@H]1c1nc2c(C)c(-c3ccc(-c4ccc5[nH]c([C@@H]6CCCN6C(=O)[C@@H](NC(=O)OC)C(C)C)nc5c4C)cc3)ccc2[nH]1)C(C)C : Yes
COC(=O)N[C@H](C(=O)N1CCC[C@H]1c1cc2nc(-c3ccc(-c4ccc5[nH]c([C@@H]6CCCN6C(=O)[C@@H](NC(=O)OC)C(C)C)cc5n4)cc3)ccc2[nH]1)C(C)C : No

Asked: # bool: pEC50 of `COC(=O)N[C@H](C(=O)N1CCC[C@H]1c1nc2cc([C@H]3CC[C@H](c4ccc5[nH]c([C@@H]6CCCN6C(=O)[C@@H](NC(=O)OC)C(C)C)nc5c4)N3c3cc(F)c(N4CCCCC4)c(F)c3)ccc2[nH]1)C(C)C` >= 10
Given back: Yes

Asked: # bool: pEC50 of `COC(=O)N[C@H](C(=O)N1CCC[C@H]1c1nc2c(C)c([C@H]3CC[C@H](c4ccc5[nH]c([C@@H]6CCCN6C(=O)[C@@H](NC(=O)OC)C(C)C)nc5c4C)N3c3ccc(C(C)(C)C)cc3)ccc2[nH]1)C(C)C` >= 10
Given back: Yes

* * *

Experiment: Half life in Sprague-Dawley rat at 3 mg/kg, po administered via gavage after 0.25 to 24 hrs
Format: ADME, organism-based
Settings: in vivo
experimental.endpoint: half-life (h)
The figure you give is taken to be in h; do not add the unit.

Asked: For `COC(=O)N[C@H](C(=O)N1CCC[C@H]1c1nc2cc([C@H]3CC[C@H](c4cc5nc([C@@H]6CCCN6C(=O)[C@@H](NC(=O)OC)C(C)C)[nH]c5cc4F)N3c3cc(F)c(N4CCCCC4)c(F)c3)c(F)cc2[nH]1)C(C)C` , what is its reported half-life?
Given back: 5.8

* * *

Experiment: Inhibition of Hepatitis C virus genotype 6a replicon NS5A transfected in human HuH7 cells assessed as decrease in replication of viral replicon after 4 days by luciferase reporter gene assay
Type: cell-based, Hepatitis C virus subtype 6a
Conditions: Huh-7, 96 h
Catalogue of EC50 values
The figure you give is taken to be in nM; do not add the unit.

COC(=O)N[C@H](C(=O)N1CCC[C@H]1c1nc2c(F)c([C@H]3CC[C@H](c4ccc5[nH]c([C@@H]6CCCN6C(=O)[C@@H](NC(=O)OC)C(C)C)nc5c4F)N3c3ccc(C(C)(C)C)cc3)ccc2[nH]1)C(C)C : 0.114
COC(=O)N[C@H](C(=O)N1CCC[C@H]1c1nc2c(F)c(-c3ccc(-c4ccc5[nH]c([C@@H]6CCCN6C(=O)[C@@H](NC(=O)OC)C(C)C)nc5c4F)cc3)ccc2[nH]1)C(C)C : 4.75
COC(=O)N[C@H](C(=O)N1CCC[C@H]1c1nc2cc([C@H]3CC[C@H](c4cc5nc([C@@H]6CCCN6C(=O)[C@@H](NC(=O)OC)C(C)C)[nH]c5cc4F)N3c3cc(F)c(N4CCCCC4)c(F)c3)c(F)cc2[nH]1)C(C)C : 0.007

Alright, here's another compound for you.
Asked: For `COC(=O)N[C@H](C(=O)N1CCC[C@H]1c1nc2cc([C@H]3CC[C@H](c4cc5nc([C@@H]6CCCN6C(=O)[C@@H](NC(=O)OC)C(C)C)[nH]c5cc4F)N3c3ccc(C(C)(C)C)cc3)c(F)cc2[nH]1)C(C)C` , what is its reported EC50?
Given back: 0.015

* * *

Test: Half life in CD1 mouse at 5 mg/kg, iv after 0.1 to 24 hrs
Type: ADME, organism-based
Conditions: in vivo
experimental.endpoint: half-life (h)
The figure you give is taken to be in h; do not add the unit.

Asked: For `COC(=O)N[C@H](C(=O)N1CCC[C@H]1c1nc2ccc([C@H]3CC[C@H](c4ccc5nc([C@@H]6CCCN6C(=O)[C@@H](NC(=O)OC)C(C)C)[nH]c5c4)N3c3ccc(C(C)(C)C)cc3)cc2[nH]1)C(C)C` , what is its reported half-life?
Given back: 2

* * *

Test: Inhibition of Hepatitis C virus genotype 1a H77 replicon NS5A Q30R mutant transfected in human HuH7 cells assessed as decrease in replication of viral replicon after 4 days by luciferase reporter gene assay
Assay type: cell-based, Hepatitis C virus (isolate H77)
Settings: Huh-7, 96 h
experimental.endpoint: EC50 (nM)
The figure you give is taken to be in nM; do not add the unit.

Solved entries (count: 3):
COC(=O)N[C@H](C(=O)N1CCC[C@H]1c1nc2cc([C@H]3CC[C@H](c4ccc5[nH]c([C@@H]6CCCN6C(=O)[C@@H](NC(=O)OC)C(C)C)nc5c4)N3c3cc(F)c(N4CCCCC4)c(F)c3)ccc2[nH]1)C(C)C : 0.025
COC(=O)N[C@H](C(=O)N1CCC[C@H]1c1nc2cc([C@H]3CC[C@H](c4cc5nc([C@@H]6CCCN6C(=O)[C@@H](NC(=O)OC)C(C)C)[nH]c5cc4F)N3c3cc(F)c(N4CCCCC4)c(F)c3)c(F)cc2[nH]1)C(C)C : 0.008
COC(=O)N[C@H](C(=O)N1CCC[C@H]1c1nc2ccc([C@H]3CC[C@H](c4ccc5nc([C@@H]6CCCN6C(=O)[C@@H](NC(=O)OC)C(C)C)[nH]c5c4)N3c3ccc(C(C)(C)C)cc3)cc2[nH]1)C(C)C : 0.027

Alright, here's another compound for you.
Asked: For `COC(=O)N[C@H](C(=O)N1CCC[C@H]1c1nc2cc([C@H]3CC[C@H](c4cc5nc([C@@H]6CCCN6C(=O)[C@@H](NC(=O)OC)C(C)C)[nH]c5cc4F)N3c3ccc(C(C)(C)C)cc3)c(F)cc2[nH]1)C(C)C` , what is its reported EC50?
Given back: 0.005

* * *

Test: Inhibition of Hepatitis C virus genotype 1a H77 replicon NS5A transfected in human HuH7 cells assessed as decrease in replication of viral replicon after 4 days by luciferase reporter gene assay
Format: cell-based, Hepatitis C virus (isolate H77)
Details: Huh-7, 96 h
experimental.endpoint: pEC50
To interpret pEC50, take it as minus log10 of a concentration measured in moles per litre.

COC(=O)N[C@H](C(=O)N1CCC[C@H]1c1nc2c(C)c([C@H]3CC[C@H](c4ccc5[nH]c([C@@H]6CCCN6C(=O)[C@@H](NC(=O)OC)C(C)C)nc5c4C)N3c3ccc(C(C)(C)C)cc3)ccc2[nH]1)C(C)C : 11.00
COC(=O)N[C@H](C(=O)N1CCC[C@H]1c1nc2c(C)c(-c3ccc(-c4ccc5[nH]c([C@@H]6CCCN6C(=O)[C@@H](NC(=O)OC)C(C)C)nc5c4C)cc3)ccc2[nH]1)C(C)C : 10.42
COC(=O)N[C@H](C(=O)N1CCC[C@H]1c1nc2cc(-c3ccc(-c4cc5nc([C@@H]6CCCN6C(=O)[C@@H](NC(=O)OC)C(C)C)[nH]c5cc4C(F)(F)F)cc3)c(C(F)(F)F)cc2[nH]1)C(C)C : 7.92
COC(=O)N[C@H](C(=O)N1CCC[C@H]1c1nc2cc(-c3ccc(-c4cc(C)c5[nH]c([C@@H]6CCCN6C(=O)[C@@H](NC(=O)OC)C(C)C)nc5c4)cc3)cc(C)c2[nH]1)C(C)C : 9.01
COC(=O)N[C@H](C(=O)N1CCC[C@H]1c1nc2c(F)c(-c3ccc(-c4ccc5[nH]c([C@@H]6CCCN6C(=O)[C@@H](NC(=O)OC)C(C)C)nc5c4F)cc3)ccc2[nH]1)C(C)C : 9.89

Alright, here's another compound for you.
Asked: For `COC(=O)N[C@H](C(=O)N1CCC[C@H]1c1nc2ccc(-c3ccc(-c4ccc5nc([C@@H]6CCCN6C(=O)[C@@H](NC(=O)OC)C(C)C)[nH]c5c4)cc3)cc2[nH]1)C(C)C` , what is its reported pEC50?
Given back: 9.57
